Tested on: U2OS
RUN DESCRIPTION: Here: values are normalized to the negative (DMSO; defined as 0% autophagy induction) and positive (250nM Torin1; mTOR inhibitor; defined as maximal inducer of autophagy = 100%) control compounds and represented as % of autophagy induction. […] The impact of autophagy induction on cells is complex and depends on the affected target. As such, the magnitude of a phenotype may not be equally mirrored in the %-value of autophagy induction and vice versa. The dynamics of the induction may indicate the mode of activation: e.g. activation via phosphorylation or a signaling cascade may occur fast, while activation via transcription factors may take considerably longer. […] Of note, treatment concentrations may be sub-optimal for specific compounds, leading to false negative annotations.
Format: functional, Homo sapiens
EXPERIMENTAL CONDITIONS: Compound Concentration 2 uM, Timepoint 36 hours, Culturing Media DMEM, 1 % Penicillin/Streptomycin, 10% Fetal bovin serum Add-On: No, Screening Media Control DMEM, Screening Media Samples DMEM
MEASUREMENT KIND: autophagy induction (%)

Cl.Clc1cccc(COc2cncc(N3CCNCC3)n2)c1
-56.8827
COc1ccc(/C=C/CCCCOc2ccc(C(=O)c3cccc(C(=O)O)c3)cc2CCC(=O)O)cc1
-0.5097
Cc1nc(C(=O)N2CCC[C@H]2Cc2nnc(-c3ccccc3)o2)c(-c2ccccc2F)s1
-1.752
CCCSc1nc(N[C@@H]2C[C@H]2c2ccc(F)c(F)c2)c2nnn([C@@H]3C[C@H](OCCO)[C@@H](O)[C@H]3O)c2n1 [TICAGRELOR]
-60.5106
CN(C)S(=O)(=O)c1ccc(NC(=S)N2CCC(C(O)(c3ccccc3)c3ccccc3)CC2)cc1
-1.588
CNc1nc(NCc2ccc(NS(C)(=O)=O)cc2Cl)cc(-c2ccccn2)n1
-0.0484
CS(=O)(=O)NC[C@H]1CC[C@H](Nc2nc3c(s2)CCSc2ccccc2-3)CC1
-2.722
COc1ccc(S(=O)(=O)N2c3ccc(Cl)cc3[C@](O)(c3ccccc3Cl)[C@@H]2C(=O)N2CCC[C@H]2C(N)=O)cc1OC [RELCOVAPTAN]
-60.4871
Cc1cc(NC(=O)Nc2ccc(N(C)C)cc2)c2cc(F)cc(F)c2n1
-1.904
COc1ccnc(N2CCC3(CCCN(Cc4c[nH]c5ccccc45)C3=O)CC2)n1
-5.289
COc1ccc(C2(O)OC(=O)C(c3ccc4c(c3)OCO4)=C2Cc2cc(OC)c(OC)c(OC)c2)cc1 (centres undefined) [PD-156707]
-0.6682
O=C(Cc1ccccc1)Nc1nc2ccc(Cl)cc2c2nc(-c3ccco3)nn12
-0.343
O=C(O)COc1cccc(CN(Cc2ccc(-n3cccn3)cc2)S(=O)(=O)c2cccnc2)c1
0.396
CCC[C@H](Oc1cc(C)c(-n2cc(C(F)(F)F)cn2)c(C)c1)c1ccc(C(=O)NCCC(=O)O)cc1 [PF-06291874]
-59.3505
